Tested on: PAF-induced hemoconcentration
Experiment: Decrease in inhibition of hemoconcentration over time (Test J)
Format: in vivo, guinea pig
Conditions: i.v., x times the ED50, time still inhibiting 50%
Endpoint: Rate of loss (µg/kg/min)
Output spec: scalar in µg/kg/min, unitless text.

Inquiry: Please give the documented Rate of loss of CCCCCCCCCCCCCCCCCCNC(=O)OC[C@@]1(C)CC[C@@](C)(COC(=O)NCc2cccc[n+]2CC)O1 (relative stereo)
Reply text: 10.21

Inquiry: Specify Rate of loss for CCCCCCCCCCCCCCCCCCNC(=O)OCC1(COC(=O)N(CCCCCc2cccc[n+]2CC)C(C)=O)CCCO1.[Cl-] (centres unmarked) and stop.
Reply text: 1.10

Inquiry: Give a short answer stating reported Rate of loss for CCCCCCCCCCCCCCCCCCNC(=O)OC[C@@]1(C)CC[C@@](C)(COC(=O)N(Cc2cccc[n+]2CC)C(C)=O)O1 (relative stereo) .
Reply text: 0.92

Inquiry: Give Rate of loss for CCCCCCCCCCCCCCCCCCNC(=O)OCC1(COC(=O)NCCCCCc2cccc[n+]2CC)CCCO1.[Cl-] (centres unmarked)
Reply text: 0.65

Inquiry: Look up and report measured Rate of loss for this entry: CCCCCCCCCCCCCCCCCCNC(=O)OCC1(COC(=O)N(Cc2cccc[n+]2CC)C(C)=O)CCCO1 (centres unmarked)
Reply text: 0.35

----------
Target: Human Platelet PAF Receptor (Homo sapiens, UniProt P25105)
Construct: 500 μl of the above-described platelets; endogenous in cells
Sequence (P25105 whole entry): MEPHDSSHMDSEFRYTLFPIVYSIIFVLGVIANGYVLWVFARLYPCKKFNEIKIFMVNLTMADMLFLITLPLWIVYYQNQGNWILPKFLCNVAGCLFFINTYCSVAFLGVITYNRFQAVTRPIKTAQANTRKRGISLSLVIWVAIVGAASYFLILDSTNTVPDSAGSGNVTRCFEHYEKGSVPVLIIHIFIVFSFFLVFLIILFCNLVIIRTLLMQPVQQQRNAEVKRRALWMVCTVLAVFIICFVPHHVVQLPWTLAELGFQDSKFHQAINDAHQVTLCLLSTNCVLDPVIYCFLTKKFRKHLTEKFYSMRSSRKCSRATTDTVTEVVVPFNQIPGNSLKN
Assay: Human Platelet PAF Receptor Assay (Test A), inhibition of specific binding of [3H]-PAF to platelets
Settings: [3H]-PAF specific binding
Endpoint: pIC50
Entry type: numeric. Quantity: pIC50, the -log10 of concentration in molar units.

Inquiry: Provide measured pIC50 value, entry: CCCCCCCCCCCCCCCCCCNC(=O)OC[C@@]1(C)CC[C@@](C)(COC(=O)NCc2cccc[n+]2CC)O1 (relative stereo) [Example 10]
Reply text: 6.25

Inquiry: Please give the documented pIC50 of CCCCCCCCCCCCCCCCCCNC(=O)OC[C@@]1(C)CC[C@@](C)(COC(=O)NCc2cc(C)cc(C)[n+]2C)O1 (relative stereo) [Example 11]
Reply text: 6.35

Inquiry: Consider the compound CCCCCCCCCCCCCCCCCCN(C(C)=O)C(=O)OCC1(COC(=O)N(Cc2cccc[n+]2CC)C(C)=O)CCCO1 (stereo not drawn) [Example 5] . State its measured pIC50.
Reply text: 8.70

Inquiry: Supply reported pIC50 belonging to this compound: CCCCCCCCCCCCCCCCCCNC(=O)OCC1(COC(=O)N(Cc2cccc[n+]2CC)C(C)=O)CCCO1 (stereo not drawn) [Example 1]
Reply text: 8.00

Inquiry: Output pIC50 of CCCCCCCCCCCCCCCCCCNC(=O)OCC1(COC(=O)N(Cc2cccc[n+]2CC)C(=O)c2ccccc2)CCCO1 (stereo not drawn) [Example 7]
Reply text: 7.80

Inquiry: Provide pIC50 value for the following compound: CCCCCCCCCCCCCCCCCCNC(=O)OC[C@@]1(C)CC[C@@](C)(COC(=O)N(C)Cc2cccc[n+]2C)O1 (relative stereo) [Example 12]
Reply text: 5.66

Inquiry: Indicate the recorded pIC50 value for this compound: CCCCCCCCCCCCCCCCCCNC(=O)OCC1(COC(=O)NCCCCCc2cccc[n+]2CC)CCCO1.[Cl-] (stereo not drawn) [Example 3]
Reply text: 7.70

Inquiry: Specify pIC50 for CCCCCCCCCCCCCCCCCCNC(=O)OCC1(COC(=O)N(Cc2cccc[n+]2CC)C(=O)C(C)(C)C)CCCO1 (stereo not drawn) [Example 6] and stop.
Reply text: 7.07

Inquiry: Let me know recorded pIC50 for CCCCCCCCCCCCCCCCCCNC(=O)OC[C@@]1(C)CC[C@@](C)(COC(=O)N(Cc2cccc[n+]2CC)C(C)=O)O1 (relative stereo) [Example 9] , thanks.
Reply text: 7.22

Inquiry: Return pIC50 for the following compound: CCCCCCCCCCCCCCCCCCNC(=O)OCC1(COC(=O)N(CCCCCc2cccc[n+]2CC)C(C)=O)CCCO1.[Cl-] (stereo not drawn) [Example 4]
Reply text: 8.10

Inquiry: Please give the documented pIC50 of CCCCCCCCCCCCCCCCCCOCC1(COC(=O)N(Cc2cccc[n+]2CC)C(C)=O)CCCO1 (stereo not drawn) [Example 8]
Reply text: 7.85

Inquiry: Note pIC50 for the compound shown: CCCCCCCCCCCCCCCCCCNC(=O)OCC1(COC(=O)NCc2cccc[n+]2CC)CCCO1 (stereo not drawn) [Example 2]
Reply text: 6.10

----------
System: PAF-induced bronchoconstriction
Experiment: Decrease in inhibition of bronchoconstriction over time (Test I)
Format: in vivo, guinea pig
Conditions: i.v., x times the ED50, time still inhibiting 50%
// label = true if Rate of loss is not less than 0.7 µg/kg/min, otherwise false

Inquiry: Does Rate of loss meet or surpass 0.7 µg/kg/min for CCCCCCCCCCCCCCCCCCNC(=O)OCC1(COC(=O)NCCCCCc2cccc[n+]2CC)CCCO1.[Cl-] (centres unmarked) ?
Reply text: false

Inquiry: Record CCCCCCCCCCCCCCCCCCNC(=O)OCC1(COC(=O)N(Cc2cccc[n+]2CC)C(C)=O)CCCO1 (centres unmarked) ; criterion: Rate of loss no lower than 0.7 µg/kg/min. Met?
Reply text: false

Inquiry: // inclusive: Rate of loss at least 0.7 µg/kg/min? input: CCCCCCCCCCCCCCCCCCNC(=O)OC[C@@]1(C)CC[C@@](C)(COC(=O)NCc2cccc[n+]2CC)O1 (relative stereo)
Reply text: true

Inquiry: Answer whether Rate of loss of CCCCCCCCCCCCCCCCCCNC(=O)OCC1(COC(=O)N(CCCCCc2cccc[n+]2CC)C(C)=O)CCCO1.[Cl-] (centres unmarked) is greater than or equal to 0.7 µg/kg/min.
Reply text: false

Inquiry: Quick check, Rate of loss >= 0.7 µg/kg/min? CCCCCCCCCCCCCCCCCCNC(=O)OC[C@@]1(C)CC[C@@](C)(COC(=O)N(Cc2cccc[n+]2CC)C(C)=O)O1 (relative stereo)
Reply text: true
